Each recorded value in this set is attributed to paper PMC8675869.

- test details: Solubility in fasted simulated intestinal fluid (FaSSIF)
- Assay type: physicochemical
- conditions used: thermodynamic from solid, fasted simulated intestinal fluid pH 6.5, 4 h, r.t., as Se content, read-out: solubility in SSIF
measured property: solubility at 4 h (µg/mL)

{"line notation": "O=C(Nc1ccc([Se][Se]c2ccc(NC(=O)c3ccco3)cc2)cc1)c1ccco1", "measured property": "solubility at 4 h", "endpoint unit": "µg/mL", "recorded value": 3.2}
{"line notation": "O=C(Nc1ccc([Se][Se]c2ccc(NC(=O)c3cccc4ccccc34)cc2)cc1)c1cccc2ccccc12", "measured property": "solubility at 4 h", "endpoint unit": "µg/mL", "recorded value": 2.5}
